Molecular target: Melanocortin receptor 3 (Homo sapiens); also: in other assays of this panel Not Active means under 50% inhibition at 10 µM
Sequence (P41968 whole entry): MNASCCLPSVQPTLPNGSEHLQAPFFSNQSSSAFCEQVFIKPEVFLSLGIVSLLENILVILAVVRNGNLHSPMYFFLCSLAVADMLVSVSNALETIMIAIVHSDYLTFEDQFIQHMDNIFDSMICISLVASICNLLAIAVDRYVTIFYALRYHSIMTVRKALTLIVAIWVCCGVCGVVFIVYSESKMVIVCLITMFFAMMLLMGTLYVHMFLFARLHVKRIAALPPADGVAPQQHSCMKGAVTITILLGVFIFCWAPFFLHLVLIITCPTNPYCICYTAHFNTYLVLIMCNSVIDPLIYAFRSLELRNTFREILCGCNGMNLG
Assay type: cell membranes, HEK293, Membrane
Details: read-out: IC50
Measure: pIC50
In textbook form, pIC50 equals minus log to base ten of the concentration in mol/L.

INPUT: Could you tell me which pIC50 is on file for Cc1c(C)c2c(c(C)c1O)CCC(C)(CN1CCN(c3cc(N4CCCC4)nc(N4CCCC4)n3)CC1)O2 (stereo unspecified) ?
OUTPUT: 4.76

* * *

Molecular target: UniProtKB O70528
Sequence (O70528 whole entry): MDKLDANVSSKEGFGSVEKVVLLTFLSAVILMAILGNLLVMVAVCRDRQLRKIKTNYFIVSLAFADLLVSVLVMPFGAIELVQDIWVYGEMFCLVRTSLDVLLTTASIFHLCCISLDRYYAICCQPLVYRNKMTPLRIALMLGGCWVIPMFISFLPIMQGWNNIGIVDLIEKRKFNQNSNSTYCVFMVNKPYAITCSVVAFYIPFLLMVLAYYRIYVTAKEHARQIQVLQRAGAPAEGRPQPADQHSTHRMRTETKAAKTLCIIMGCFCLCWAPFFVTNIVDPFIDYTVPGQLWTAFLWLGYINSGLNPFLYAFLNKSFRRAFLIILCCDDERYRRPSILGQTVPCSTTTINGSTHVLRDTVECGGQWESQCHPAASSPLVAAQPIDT
Format: cell membranes, Dunkin-Hartley, Striatum, Membrane
Measure: IC50

| Compound | Target system | Measure | Result |
| --- | --- | --- | --- |
| CN/C(=N\CCSCc1nc[nH]c1C)NC#N | UniProtKB O70528 | IC50 | Not Active |
| CCN(CC)CCOc1ccc(/C(=C(/Cl)c2ccccc2)c2ccccc2)cc1 | UniProtKB O70528 | IC50 | Not Active |
| CC1(C)S[C@@H]2[C@H](NC(=O)[C@H](N)c3ccccc3)C(=O)N2[C@H]1C(=O)O | UniProtKB O70528 | IC50 | Not Active |
| CCCCOc1cc(CC2CNC(=O)N2)ccc1OC (stereo not given) | UniProtKB O70528 | IC50 | Not Active |

Alright, here's another compound for you.
INPUT: Notebook entry, UniProtKB O70528 assay: IC50 of CCN1CCC[C@H]1CNC(=O)c1cc(S(N)(=O)=O)ccc1OC [LEVOSULPIRIDE] = ?
OUTPUT: Not Active

* * *

Biological target: 5-hydroxytryptamine receptor 2C (Homo sapiens)
Sequence (P28335 whole entry): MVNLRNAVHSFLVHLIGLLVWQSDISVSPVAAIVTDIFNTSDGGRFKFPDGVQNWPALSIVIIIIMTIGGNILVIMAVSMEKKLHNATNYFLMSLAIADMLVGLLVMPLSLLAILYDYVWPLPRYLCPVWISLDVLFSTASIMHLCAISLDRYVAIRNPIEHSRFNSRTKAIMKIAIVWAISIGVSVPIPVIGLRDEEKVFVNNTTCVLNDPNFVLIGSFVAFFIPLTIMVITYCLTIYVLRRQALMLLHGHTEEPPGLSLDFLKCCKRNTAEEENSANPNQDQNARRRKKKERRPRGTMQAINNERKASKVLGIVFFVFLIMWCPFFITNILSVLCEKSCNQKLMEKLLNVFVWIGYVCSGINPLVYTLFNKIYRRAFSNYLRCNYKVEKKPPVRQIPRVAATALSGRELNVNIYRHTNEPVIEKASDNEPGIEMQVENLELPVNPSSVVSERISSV
Test: DRUGMATRIX: Serotonin (5-Hydroxytryptamine) 5-HT2C radioligand binding (ligand: [3H] Mesulergine)
Type: cell membranes, CHO-K1, Membrane
Conditions: Not Active = under 50% inhibition at 10 µM; read-out: IC50
Could you please mark Satisfied for values of IC50 below 5000 nM and Not satisfied for values at or above it?

Below are worked cases with known answers.
| Substance smiles | Target system | Assigned label |
| --- | --- | --- |
| CC(C)c1cccc(C(C)C)c1O | 5-hydroxytryptamine receptor 2C (Homo sapiens) | Not satisfied |
| Oc1c(Cl)cc(Cl)c(Cl)c1Cc1c(O)c(Cl)cc(Cl)c1Cl | 5-hydroxytryptamine receptor 2C (Homo sapiens) | Satisfied |
| Fc1ccc(C(c2ccc(F)cc2)N2CCN(C/C=C/c3ccccc3)CC2)cc1 | 5-hydroxytryptamine receptor 2C (Homo sapiens) | Satisfied |

INPUT: Would you kindly verify if IC50 of C[C@@H](CO)NC(=O)[C@@H]1C=C2c3cccc4[nH]cc(c34)C[C@H]2N(C)C1 is strictly less than 5000 nM?
OUTPUT: Satisfied

INPUT: Next record, please: CCN(CC)CCOc1ccc(/C(=C(/Cl)c2ccccc2)c2ccccc2)cc1
OUTPUT: Satisfied

* * *

Biological target: Tyrosine-protein kinase Fyn (Homo sapiens);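 also: enzymatic inhibition of Fyn kinase activity measured with Poly(Glu:Tyr) as the phosphorylation substrate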; also: in other assays of this panel Not Active means under 50% inhibition at 10 µM
Sequence (P06241 whole entry): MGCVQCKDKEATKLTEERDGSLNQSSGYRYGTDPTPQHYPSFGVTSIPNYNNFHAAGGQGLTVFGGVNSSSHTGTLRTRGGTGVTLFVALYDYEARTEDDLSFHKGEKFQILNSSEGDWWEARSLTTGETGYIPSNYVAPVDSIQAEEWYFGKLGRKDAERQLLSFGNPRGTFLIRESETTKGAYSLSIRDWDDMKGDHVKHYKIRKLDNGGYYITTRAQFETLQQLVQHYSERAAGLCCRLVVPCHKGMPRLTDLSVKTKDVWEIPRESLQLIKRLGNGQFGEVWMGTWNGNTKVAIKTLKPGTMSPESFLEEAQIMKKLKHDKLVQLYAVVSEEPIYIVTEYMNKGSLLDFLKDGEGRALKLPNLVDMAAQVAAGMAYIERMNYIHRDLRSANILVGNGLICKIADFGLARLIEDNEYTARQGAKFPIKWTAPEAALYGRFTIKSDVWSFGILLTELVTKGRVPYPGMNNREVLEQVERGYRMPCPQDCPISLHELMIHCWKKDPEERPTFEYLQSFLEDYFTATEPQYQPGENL
Assay: biochemical
Type: cell-based, Insect cells
Conditions: insect cells
Measure: IC50

| Molecule | IC50 |
| --- | --- |
| CCCN(CCC)S(=O)(=O)c1ccc(C(=O)O)cc1 | Not Active |
| Cc1nnc2n1-c1ccc(Cl)cc1C(c1ccccc1)=NC2 | Not Active |
| Fc1ccc(C(c2ccc(F)cc2)N2CCN(C/C=C/c3ccccc3)CC2)cc1 | Not Active |
| CNCCC(Oc1ccc(C(F)(F)F)cc1)c1ccccc1 (stereo not given) | Not Active |

Alright, here's another molecule for you.
INPUT: Could you tell me which IC50 is on file for CC1(C)S[C@@H]2[C@H](NC(=O)[C@H](N)c3ccccc3)C(=O)N2[C@H]1C(=O)O ?
OUTPUT: Not Active

* * *

Molecular target: D(3) dopamine receptor (Homo sapiens)
Sequence (P35462 whole entry): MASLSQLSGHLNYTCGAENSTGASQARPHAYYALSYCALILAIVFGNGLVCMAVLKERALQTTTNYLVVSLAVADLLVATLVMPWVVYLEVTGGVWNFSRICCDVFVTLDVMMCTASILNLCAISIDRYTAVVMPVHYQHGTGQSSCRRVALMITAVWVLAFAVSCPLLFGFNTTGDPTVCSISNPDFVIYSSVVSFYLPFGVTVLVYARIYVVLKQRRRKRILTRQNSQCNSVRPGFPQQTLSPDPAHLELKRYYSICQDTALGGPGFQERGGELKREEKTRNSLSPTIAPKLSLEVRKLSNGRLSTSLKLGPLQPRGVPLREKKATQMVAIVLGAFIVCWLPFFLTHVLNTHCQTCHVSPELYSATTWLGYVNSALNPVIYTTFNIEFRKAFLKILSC
Assay: DRUGMATRIX: Dopamine D3 radioligand binding (ligand: [3H] Spiperone)
Type: cell membranes, CHO, Membrane
Settings: cho
Measure: IC50

Examples with answers:
| Molecule | IC50 |
| --- | --- |
| O=C1O[C@H]([C@@H](O)CO)C(O)=C1O | Not Active |
| CC[C@H]1CN2CCc3cc(OC)c(OC)cc3[C@@H]2C[C@@H]1C[C@H]1NCCc2cc(OC)c(OC)cc21 | Not Active |
| O=C(O)CCNC(=O)c1ccccc1 | Not Active |
| CCCN(CCC)S(=O)(=O)c1ccc(C(=O)O)cc1 | Not Active |
| CC(C)NCC(O)c1ccc(O)c(O)c1 (stereo not drawn) | Not Active |
| COc1c2occc2cc2ccc(=O)oc12 | Not Active |
| CC(C(=O)O)c1ccc2oc(-c3ccc(Cl)cc3)nc2c1 (stereo not drawn) | Not Active |
| CC(=O)Oc1ccc(C(c2ccc(OC(C)=O)cc2)c2ccccn2)cc1 | Not Active |
| CCCCNc1ccc(C(=O)OCCN(C)C)cc1 | Not Active |
| Nc1cc(N2CCCCC2)nc(N)[n+]1[O-] | Not Active |

INPUT: Notebook entry, D(3) dopamine receptor (Homo sapiens) assay: IC50 of O=C(Nc1ccc(Br)cc1)c1cc(Br)cc(Br)c1O = ?
OUTPUT: Not Active

INPUT: Next record, please: CC(c1cc2ccccc2s1)N(O)C(N)=O (stereo not drawn)
OUTPUT: Not Active

INPUT: Next record, please: CCC(=O)O[C@]1(C(=O)CCl)[C@@H](C)C[C@H]2[C@@H]3CCC4=CC(=O)C=C[C@]4(C)[C@@]3(F)[C@@H](O)C[C@@]21C [CLOBETASOL PROPIONATE]
OUTPUT: Not Active

* * *

Target: Vascular endothelial growth factor receptor 1 (Homo sapiens); also: in other assays of this panel Not Active means under 50% inhibition at 10 µM
Sequence (P17948 whole entry): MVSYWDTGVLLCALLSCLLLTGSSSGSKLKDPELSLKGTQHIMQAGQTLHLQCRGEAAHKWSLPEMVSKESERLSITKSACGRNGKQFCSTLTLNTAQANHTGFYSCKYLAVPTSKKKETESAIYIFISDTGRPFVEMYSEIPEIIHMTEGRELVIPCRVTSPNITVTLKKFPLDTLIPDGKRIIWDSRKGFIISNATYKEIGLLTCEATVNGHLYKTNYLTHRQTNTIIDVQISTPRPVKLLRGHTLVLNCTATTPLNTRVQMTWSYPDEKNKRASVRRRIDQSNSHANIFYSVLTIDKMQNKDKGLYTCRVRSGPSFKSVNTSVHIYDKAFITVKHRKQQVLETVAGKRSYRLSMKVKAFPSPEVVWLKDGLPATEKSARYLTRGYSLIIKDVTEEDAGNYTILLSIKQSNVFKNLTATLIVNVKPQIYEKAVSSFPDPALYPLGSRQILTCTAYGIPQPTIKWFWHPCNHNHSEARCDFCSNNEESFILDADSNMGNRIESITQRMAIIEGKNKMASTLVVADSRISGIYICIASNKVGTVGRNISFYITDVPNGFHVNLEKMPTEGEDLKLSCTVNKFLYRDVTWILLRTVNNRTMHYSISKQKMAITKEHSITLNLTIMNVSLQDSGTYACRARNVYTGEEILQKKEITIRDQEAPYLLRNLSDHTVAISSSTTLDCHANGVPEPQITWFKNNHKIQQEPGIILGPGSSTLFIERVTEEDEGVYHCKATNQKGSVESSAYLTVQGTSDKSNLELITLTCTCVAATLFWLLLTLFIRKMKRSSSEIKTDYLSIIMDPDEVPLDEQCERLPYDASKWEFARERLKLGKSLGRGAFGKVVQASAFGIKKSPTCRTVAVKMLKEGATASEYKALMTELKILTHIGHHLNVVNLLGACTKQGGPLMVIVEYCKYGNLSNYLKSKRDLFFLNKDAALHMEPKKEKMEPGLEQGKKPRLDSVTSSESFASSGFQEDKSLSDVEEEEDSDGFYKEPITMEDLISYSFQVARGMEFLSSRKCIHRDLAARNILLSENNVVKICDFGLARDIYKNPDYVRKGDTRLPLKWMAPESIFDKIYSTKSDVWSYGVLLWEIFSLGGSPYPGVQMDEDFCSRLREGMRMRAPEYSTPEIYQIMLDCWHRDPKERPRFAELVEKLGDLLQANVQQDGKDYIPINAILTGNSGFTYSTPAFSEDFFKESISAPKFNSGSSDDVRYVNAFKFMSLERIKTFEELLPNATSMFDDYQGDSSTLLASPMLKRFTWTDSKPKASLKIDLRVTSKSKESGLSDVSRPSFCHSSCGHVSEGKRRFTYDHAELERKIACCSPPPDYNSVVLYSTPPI
Assay: biochemical
Format: cell-based, HUVEC
Details: huvec
Measure: IC50

| Compound | IC50 |
| --- | --- |
| CC(=O)[C@@]1(O)CC[C@H]2[C@@H]3CCC4=CC(=O)CC[C@]4(C)[C@H]3CC[C@@]21C [HYDROXYPROGESTERONE] | Not Active |
| CC(C)NCC(O)COc1cccc2[nH]ccc12 (stereo not drawn) [PINDOLOL] | Not Active |
| CC(C)c1cccc(C(C)C)c1O [PROPOFOL] | Not Active |
| O=C(O)CCNC(=O)c1ccccc1 [BETAMIPRON] | Not Active |
| C[C@]12C=CC(=O)C=C1CC[C@@H]1[C@@H]2[C@@H](O)C[C@@]2(C)[C@H]1CC[C@]2(O)C(=O)CO [PREDNISOLONE] | Not Active |

INPUT: Could you tell me which IC50 is on file for OC(CCCN1CCCCC1)(c1ccccc1)c1ccccc1 [DIPHENIDOL] ?
OUTPUT: Not Active

INPUT: Next record, please: O.O.O.O.O.O.[Cl-].[Cl-].[Sr+2] [STRONTIUM CHLORIDE HEXAHYDRATE]
OUTPUT: Not Active

INPUT: Next record, please: Brc1c(NC2=NCCN2)ccc2nccnc12 [BRIMONIDINE]
OUTPUT: Not Active

INPUT: Next record, please: C[n+]1ccc(-c2cc[n+](C)cc2)cc1.[Cl-].[Cl-] [PARAQUAT DICHLORIDE]
OUTPUT: Not Active

INPUT: Next record, please: CC(C)NCC(O)c1ccc(NS(C)(=O)=O)cc1 (stereo not drawn) [SOTALOL]
OUTPUT: Not Active

INPUT: Next record, please: O=C(Oc1ccccc1C(=O)O)c1ccccc1O [SALSALATE]
OUTPUT: Not Active

INPUT: Next record, please: CNCCC(Oc1ccc(C(F)(F)F)cc1)c1ccccc1 (stereo not drawn) [FLUOXETINE]
OUTPUT: Not Active

INPUT: Next record, please: CCN(CC)CCNC(=O)c1cc(S(C)(=O)=O)ccc1OC [TIAPRIDE]
OUTPUT: Not Active

INPUT: Next record, please: CCC1(CCC(C)C)C(=O)NC(=O)NC1=O [AMOBARBITAL]
OUTPUT: Not Active

INPUT: Next record, please: Cn1c(=O)c2[nH]cnc2n(C)c1=O.Cn1c(=O)c2[nH]cnc2n(C)c1=O.NCCN [AMINOPHYLLINE]
OUTPUT: Not Active

INPUT: Next record, please: O=C(O)c1cn(-c2ccc(F)cc2)c2cc(N3CCNCC3)c(F)cc2c1=O [SARAFLOXACIN]
OUTPUT: Not Active

INPUT: Next record, please: C[C@@H]1C[C@H]2[C@@H]3CCC4=CC(=O)C=C[C@]4(C)[C@@]3(F)[C@@H](O)C[C@]2(C)[C@@]1(O)C(=O)CO [DEXAMETHASONE]
OUTPUT: Not Active

INPUT: Next record, please: CS(=O)(=O)c1ccc([C@@H](O)[C@@H](CO)NC(=O)C(Cl)Cl)cc1 [THIAMPHENICOL]
OUTPUT: Not Active

Values compiled from ChEMBL document CHEMBL1909046.
